# Tested on: DIV30
# assay.procedure: qHTS profiling for inhibitors of Plasmodium falciparum proliferation (AID 504749); further: nearly all actives have a fitted effect of over 60% in size
# experimental.setup: P. falciparum in erythrocytes, SYBR Green DNA, 72 h; series mostly up to 28.7 µM
Records with an inconclusive call do not appear. Activity calls are given as the source filed them. The call rests on the fitted dose curve; in most records, active means well fitted inhibition curve with a large enough effect; inconclusive means small, poorly fitted or top-dose-only effect; inactive means flat fitted curve, though single readings scatter.
Choose one outcome from this list and give only that: label 1 for active, label 0 for inactive

molecule	classification
C=C1CC[C@H](O)C/C1=C/C=C1\CCC[C@]2(C)[C@@H]([C@H](C)CCCC(C)C)CC[C@@H]12	label 0
C[C@@H]1C[C@H]2[C@H]3C[C@@H](F)C4=CC(=O)C=C[C@]4(C)[C@@]3(Cl)[C@@H](O)C[C@@]2(C)[C@@H]1C(=O)COC(=O)C(C)(C)C	label 0

Lookup: Hi, do you know how `CC1(C)S[C@@H]2[C@H](NC(=O)Cc3ccccc3)C(=O)N2[C@@H]1C(=O)O` came out in this test?
Found: label 0

Lookup: Hi, do you know how `N[C@@H](Cc1ccccc1)C(=O)O` came out in this test?
Found: label 0

Lookup: Hi, do you know how `N[C@H](COP(=O)(O)O)C(=O)O` came out in this test?
Found: label 0

Lookup: Hi, do you know how `O=C(O)[C@@H](S)[C@H](S)C(=O)O` came out in this test?
Found: label 1

Lookup: Hi, do you know how `C[C@H]1C[C@@H]2[C@H]3CCC4=CC(=O)C=C[C@@]4(C)[C@@]3(Cl)[C@@H](O)C[C@]2(C)[C@]1(OC(=O)c1ccco1)C(=O)CCl` came out in this test?
Found: label 1

Lookup: Hi, do you know how `OC[C@H](S)CS` came out in this test?
Found: label 0

Lookup: Hi, do you know how `Cc1onc(-c2c(F)cccc2Cl)c1C(=O)N[C@@H]1C(=O)N2[C@H]1SC(C)(C)[C@H]2C(=O)O` came out in this test?
Found: label 0

Lookup: Hi, do you know how `CC1(C)[C@@H]2CC[C@]1(C)[C@@H](OC(=O)CSC#N)C2` came out in this test?
Found: label 0

Lookup: Hi, do you know how C[N+]1(C)[C@@H]2CC(OC(=O)[C@@H](CO)c3ccccc3)C[C@@H]1[C@H]1O[C@H]12 (some centres not stated) came out in this test?
Found: label 0

Lookup: Hi, do you know how `CC(C)(C)c1ccc(CN2CCN([C@H](c3ccccc3)c3ccc(Cl)cc3)CC2)cc1` came out in this test?
Found: label 0
